- target desc: full-length human PLD1 (Homo sapiens (Human), UniProt Q13393)
- Sequence (Q13393 other isoform, or with tags, fused parts or gaps): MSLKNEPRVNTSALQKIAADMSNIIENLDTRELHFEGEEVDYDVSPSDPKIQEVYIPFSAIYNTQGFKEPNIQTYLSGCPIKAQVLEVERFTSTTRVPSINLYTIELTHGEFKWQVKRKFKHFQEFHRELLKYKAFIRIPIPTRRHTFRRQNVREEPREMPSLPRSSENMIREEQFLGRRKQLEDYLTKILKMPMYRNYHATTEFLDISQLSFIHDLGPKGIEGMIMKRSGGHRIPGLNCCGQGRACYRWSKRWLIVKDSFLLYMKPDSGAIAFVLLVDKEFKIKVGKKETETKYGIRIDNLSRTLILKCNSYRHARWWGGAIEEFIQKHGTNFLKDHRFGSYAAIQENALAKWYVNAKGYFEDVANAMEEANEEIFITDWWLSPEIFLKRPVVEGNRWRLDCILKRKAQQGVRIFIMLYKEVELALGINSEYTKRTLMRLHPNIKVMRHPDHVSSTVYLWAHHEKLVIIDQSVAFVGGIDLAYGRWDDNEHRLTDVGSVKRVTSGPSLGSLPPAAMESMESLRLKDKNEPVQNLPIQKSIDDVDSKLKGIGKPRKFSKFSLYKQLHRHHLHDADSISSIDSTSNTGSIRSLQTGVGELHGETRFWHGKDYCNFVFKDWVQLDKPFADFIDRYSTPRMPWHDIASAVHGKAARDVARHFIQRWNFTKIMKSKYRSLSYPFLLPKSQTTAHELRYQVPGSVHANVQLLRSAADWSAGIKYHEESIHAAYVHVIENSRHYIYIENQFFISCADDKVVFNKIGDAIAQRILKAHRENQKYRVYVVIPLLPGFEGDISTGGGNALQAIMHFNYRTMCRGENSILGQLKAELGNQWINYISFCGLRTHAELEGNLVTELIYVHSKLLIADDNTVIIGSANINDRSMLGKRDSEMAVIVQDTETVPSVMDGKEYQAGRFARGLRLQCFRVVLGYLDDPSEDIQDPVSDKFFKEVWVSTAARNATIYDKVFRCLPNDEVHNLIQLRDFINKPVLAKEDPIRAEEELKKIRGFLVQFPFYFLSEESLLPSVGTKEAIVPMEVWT
- run description: Evaluation of human PLD1 enzyme inhibitory activity (Amplex Red / choline oxidase fluorescence)
- Assay type: biochemical
- experimental context: full-length human PLD1 enzyme; read-out: PLD1 IC50
Consider the following molecules; for each one, report its pIC50.
Answers are plain numbers, as −log10 of the molar value.

Consider the worked cases shown below.
| molecule | pIC50 |
| --- | --- |
| CCCS(=O)(=O)c1ccc(C2=NNC(=O)O[C@]23CC[C@@H](C[C@H](C)NC(=O)C(=O)NC)CC3)c(Cl)c1 [Example 77] | 7.59 |
| Cc1cc(Br)ccc1C1=NNC(=O)O[C@]12CC[C@@H](C[C@H](C)NC(=O)C(=O)NC1CC1)CC2 [Example 209] | 7.74 |
| CNC(=O)C(=O)N[C@@H](C)C[C@H]1CC[C@]2(CC1)OC(=O)NN=C2c1ccc(C(C)(C)O)cc1C [Example 178] | 7.85 |
| Cc1cc(C(=O)N[C@@H](C)CN2CCC3(CC2)OC(=O)NN=C3c2cc(C#N)ccc2Cl)[nH]n1 [Example 2-007] | 7.55 |
| Cc1cc(C(=O)N[C@@H](C)C[C@H]2CC[C@]3(CC2)OC(=O)NN=C3c2cnc(Cl)cc2N2CCC(F)(F)C2)[nH]n1 [Example 223] | 6.40 |
| CNC(=O)C(=O)NC[C@H](C)N1CCC2(CC1)OC(=O)NN=C2c1ccc(C#N)cc1Br [Example 329] | 7.29 |

Proceeding to the next molecule to report its pIC50.
Entry CNC(=O)C(=O)N[C@@H](C)C[C@H]1CC[C@]2(CC1)OC(=O)NN=C2c1cnc(C(N)=O)cc1C [Example 187] : reported pIC50 = ?
6.65
